All values here come from patent US10407467B2.

Measured MIC A. baumannii NCTC 13423 by item
System: Acinetobacter baumannii
experiment.description: MIC, sole activity (no second agent)
Format: cell-based
cond: in the absence of Rifampicin; strain NCTC13423
Counter-ions that a name gives are not always drawn. Bridge positions count the residues as written; N and C are the ends. Square brackets hold non-standard residues; d marks the D form. Peptide text beside a SMILES is read from it. * marks the point of attachment. ξ: configuration not given here. ξHexahydromandeloyl = O=C(C(O)C1CCCCC1)*; Thr(3ξ) = CC(O)[C@H](N)C(=O)O; Dab = NCC[C@H](N)C(=O)O; Dap = NC[C@H](N)C(=O)O; βAla = NCCC(=O)O
Respond with the bare value in micrograms/mL.

CC(C)C[C@@H]1NC(=O)[C@@H](Cc2ccccc2)NC(=O)[C@H](CCN)NC(=O)[C@@H](NC(=O)[C@H](CN)NC(=O)[C@@H](NC(=O)C(O)C2CCCCC2)C(C)O)CCNC(=O)[C@H](C(C)O)NC(=O)[C@H](CCN)NC(=O)[C@H](CCN)NC1=O (some centres unmarked) [Example 45, TFA salt] (ξHexahydromandeloyl-[Thr(3ξ)][Dap][Dab][Dab][dF]L[Dab][Dab][Thr(3ξ)]; lactam 3-C) | 1

The record that follows has no MIC A. baumannii NCTC 13423 shown yet.
Short answer for CC(C)C[C@@H]1NC(=O)[C@@H](Cc2ccccc2)NC(=O)[C@H](CCN)NC(=O)[C@@H](NC(=O)[C@H](CCN)NC(=O)[C@@H](NC(=O)CCN)C(C)O)CCNC(=O)[C@H](C(C)O)NC(=O)[C@H](CCN)NC(=O)[C@H](CCN)NC1=O (some centres unmarked) [Example 3, 3-Aminopropanoyl polymyxin B nonapeptide] (H-[βAla][Thr(3ξ)][Dab][Dab][Dab][dF]L[Dab][Dab][Thr(3ξ)]; lactam 4-C) : MIC A. baumannii NCTC 13423 was 1

====

Measured MIC P. aeruginosa CCUG 59626 by item
System: Pseudomonas aeruginosa
experiment.description: MIC, sole activity (no second agent)
Type: cell-based
cond: in the absence of Rifampicin; strain CCUG 59626
Where a name gives a salt, the structure may show the parent alone. Bridge positions count the residues as written; N and C are the ends. Square brackets hold non-standard residues; d marks the D form. Peptide text beside a SMILES is read from it. * marks the point of attachment. ξ: configuration not given here. ξHexahydromandeloyl = O=C(C(O)C1CCCCC1)*; ξβ3hGly(cHex) = NC(CC(=O)*)C1CCCCC1; Thr(3ξ) = CC(O)[C@H](N)C(=O)O; Dab = NCC[C@H](N)C(=O)O; Dap = NC[C@H](N)C(=O)O; Inp = O=C(O)C1CCNCC1; X4 = NC1CCCC1C(=O)*
Respond with the bare value in micrograms/mL.

CC(C)C[C@@H]1NC(=O)[C@@H](Cc2ccccc2)NC(=O)[C@H](CCN)NC(=O)[C@@H](NC(=O)[C@H](CCN)NC(=O)[C@@H](NC(=O)C2CCCC2N)C(C)O)CCNC(=O)[C@H](C(C)O)NC(=O)[C@H](CCN)NC(=O)[C@H](CCN)NC1=O (stereo partly drawn) [Example 7] (X4-[Thr(3ξ)][Dab][Dab][Dab][dF]L[Dab][Dab][Thr(3ξ)]; lactam 3-C) | 0.125

Short answer for CC(C)C[C@@H]1NC(=O)[C@@H](Cc2ccccc2)NC(=O)[C@H](CCN)NC(=O)[C@@H](NC(=O)[C@H](CCCCN)NC(=O)[C@@H](NC(=O)C2CCNCC2)C(C)O)CCNC(=O)[C@H](C(C)O)NC(=O)[C@H](CCN)NC(=O)[C@H](CCN)NC1=O (stereo partly drawn) [Example 51, TFA salt] (H-[Inp][Thr(3ξ)]K[Dab][Dab][dF]L[Dab][Dab][Thr(3ξ)]; lactam 4-C) : MIC P. aeruginosa CCUG 59626 was 0.25

Short answer for CC(C)C[C@@H]1NC(=O)[C@@H](Cc2ccccc2)NC(=O)[C@H](CCN)NC(=O)[C@@H](NC(=O)[C@H](CN)NC(=O)[C@@H](NC(=O)C(O)C2CCCCC2)C(C)O)CCNC(=O)[C@H](C(C)O)NC(=O)[C@H](CCN)NC(=O)[C@H](CCN)NC1=O (stereo partly drawn) [Example 45, TFA salt] (ξHexahydromandeloyl-[Thr(3ξ)][Dap][Dab][Dab][dF]L[Dab][Dab][Thr(3ξ)]; lactam 3-C) : MIC P. aeruginosa CCUG 59626 was 0.125

Short answer for CC(C)C[C@H]1NC(=O)[C@H](CCN)NC(=O)[C@@H](NC(=O)[C@H](CCN)NC(=O)[C@@H](NC(=O)CC(N)C2CCCCC2)C(C)O)CCNC(=O)[C@H](C(C)O)NC(=O)[C@H](CCN)NC(=O)[C@H](CCN)NC(=O)[C@H](C(C)O)NC1=O (stereo partly drawn) [Example 50] ({ξβ3hGly(cHex)}-[Thr(3ξ)][Dab][Dab][Dab][dL][Thr(3ξ)][Dab][Dab][Thr(3ξ)]; lactam 3-C) : MIC P. aeruginosa CCUG 59626 was 2

Short answer for CC(C)C[C@@H]1NC(=O)[C@@H](Cc2ccccc2)NC(=O)[C@H](CCN)NC(=O)[C@@H](NC(=O)[C@@H](CO)NC(=O)[C@@H](NC(=O)CC(N)C2CCCCC2)[C@@H](C)O)CCNC(=O)[C@H](C(C)O)NC(=O)[C@H](CCN)NC(=O)[C@H](CCN)NC1=O (stereo partly drawn) [Example 48, TFA salt] ({ξβ3hGly(cHex)}-T[dS][Dab][Dab][dF]L[Dab][Dab][Thr(3ξ)]; lactam 3-C) : MIC P. aeruginosa CCUG 59626 was 1
